Biological target: T1, EGFR Fc (human, UniProt P00533 25-645)
T1 construct: also called EGFR-hFc; recombinant human EGFR-Fc
Assay: ELISA, EGFR Fc coated, VHH at 0.016 nM
OBSERVATION_TYPE: OD450
Answer using only a numeral; do not append any unit.

{"BINDER": "pgEG-SX57 (VHH, not shown: small tags and cut ends) VHH: QVQLVESGGGLVQAGGSLRLSCAGARSIFSIKPMTWYRQAPGKERELVAWFTSGDSPNYADSVKGRFTISRDSAKNTVYLQMNNLKPEDTAVYYCNAVPPLGRWGQGTLVTVSS", "OD450": 1.33}
{"BINDER": "pgEG-SX52 (VHH, not shown: small tags and cut ends) VHH: QVQLVESGGGLVKAGKSLRLSCAASVSSFDTYTMGWYRQAPGKQREQVAIITPGAGTHYADSVKGRFTISRDNAKNTVYLQMSSLKLEDTAVYYCKARHRITGYDYWGQGTQVTVSS", "OD450": 0.32}
{"BINDER": "pgEG-SX39 (VHH, not shown: small tags and cut ends) VHH: QVQVAESGGGLVQAGESLRLSCTASGSISTINAVRWYRQTPGKQREFVAYISTDGGTDYADPVKGRFTISRDNAKNTWFLQMNSLKPEDTGVYMCNVVVTPYAYWGQGTQVTVSS", "OD450": 0.072}

Report OD450 for pgEG-SX40 (VHH, not shown: small tags and cut ends) VHH: QVQLVESGGGLVQAGGSLRLSCTGSGIRFSFYTLGWYRQAPGKQRELVAEIYSSDNAKYEDSVKGRFAISRDNAKNSVSLQMNSLKPEDTAVYYCNVRATDYWGPGTQVTVSS
0.144

Provide measured OD450 value, entry: pgEG-SX3 (VHH, not shown: small tags and cut ends) VHH: QVQLVESGGGLVQAGGSLRLSCVVYGSIFASTTMGWYRQAPGKQRELVATVYQSGTSVYADSVKGRFTASRDNAKKTVYLQMNSLKPEDTAVYYCHPRATDYWGRGTQVTVSS
0.134

Identify measured OD450 corresponding to pgEG-SX22 (VHH, not shown: small tags and cut ends) VHH: QVQLVESGGGLVQAGGSLRVSCAVSGGALSAYAMAWFRQAPGKEREFVAGLNWGGDETYYADSAKGRFTISKDNAKNTVSLQMNSLEPEDTAVYYCGGRPGPLLSRATGYKYWGQGTQVTVSS
0.871
